Overview of recorded microsomal CLint at 1 µM for various compounds
test: Stability in mouse hepatic microsomes; assay type: in vitro ADME; conditions: read-out: Intrinsic clearance Clint Mouse
Please give a number only; it is taken to be in µL/min/mg.

- O=C(Nc1ccccc1)Nc1ccc(C(=O)NO)cc1 [Compound 8a, N-hydroxy-4-(3-phenylureido)bezamide]: 69

So, COc1ccc(NC(=O)Nc2ccc(/C=C/C(=O)NO)cc2)cc1 [Compound 6c] ? Its microsomal CLint at 1 µM was 158

Record summary for COc1ccc(NC(=O)Nc2ccc(C(=O)NO)cc2)cc1 [Compound 8c] : reported microsomal CLint at 1 µM = 281

// recorded microsomal CLint at 1 µM for COc1ccc(NC(=O)Nc2ccc(CCC(=O)NO)cc2)cc1 [Compound 7c] : 169

For record O=C(Nc1ccc(C(=O)NO)cc1)Nc1ccc([N+](=O)[O-])cc1 [Compound 8d] the listed microsomal CLint at 1 µM is 50

Sample O=C(Nc1ccc(Cl)cc1)Nc1ccc(C(=O)NO)cc1 [Compound 8b] ; microsomal CLint at 1 µM observed: 173

The reported microsomal CLint at 1 µM of the compound CCN(CC)CCNC(=O)c1c(C)[nH]c(/C=C2\C(=O)Nc3ccc(F)cc32)c1C [Sunitinib, reference compound] was 76

----------
molecular target: human HDAC6 (Homo sapiens, UniProt Q9UBN7); construct: purchased ENZO Life Sciences AG (Lausen, CH); test: In vitro HDAC enzymatic assay, HDAC6; type: biochemical; conditions: ratio HsHDAC1 IC50/HsHDAC6 IC50
value type: HDAC1/6 SI
Answer using only a numeral; do not append any unit.

The recorded HDAC1/6 SI for entry O=C(Nc1ccc(Cl)cc1)Nc1ccc(C(=O)NO)cc1 equals 349

For O=C(CCc1ccc(NC(=O)Nc2ccccc2)cc1)NO the compound record lists HDAC1/6 SI as 32

----------
CYP450% inhibition @ 10 µM 1A2 values, listed per item
Target: CYP1A2 (Homo sapiens, UniProt P05177)
Construct: 10 μM compound was incubated with human liver microsomes and selective marker substrates; from tissue; host or cells: human liver microsomes
Sequence (P05177 1-516): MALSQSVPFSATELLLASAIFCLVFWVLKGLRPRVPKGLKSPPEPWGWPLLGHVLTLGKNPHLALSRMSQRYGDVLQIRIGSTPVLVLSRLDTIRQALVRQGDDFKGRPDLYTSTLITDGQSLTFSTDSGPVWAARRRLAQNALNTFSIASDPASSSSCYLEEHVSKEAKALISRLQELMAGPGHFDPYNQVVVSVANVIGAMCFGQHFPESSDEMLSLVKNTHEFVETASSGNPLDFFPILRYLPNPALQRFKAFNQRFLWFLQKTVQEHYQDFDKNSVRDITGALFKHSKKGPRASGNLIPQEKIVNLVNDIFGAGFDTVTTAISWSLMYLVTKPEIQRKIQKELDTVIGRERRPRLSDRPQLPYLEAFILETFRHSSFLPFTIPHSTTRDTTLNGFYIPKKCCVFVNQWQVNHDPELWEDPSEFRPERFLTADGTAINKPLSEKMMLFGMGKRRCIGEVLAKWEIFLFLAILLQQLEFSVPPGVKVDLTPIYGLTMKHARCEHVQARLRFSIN
Test: CYP450 inhibition in human liver microsomes, 1A2
Assay type: in vitro ADME
Conditions: 10 µM
Write the answer as a number in %, unit excluded.

* O=C(Nc1ccccc1)Nc1ccc(C(=O)NO)cc1 [Compound 8a, N-hydroxy-4-(3-phenylureido)bezamide] | 48

GET /values?item= COc1ccc(NC(=O)Nc2ccc(CCC(=O)NO)cc2)cc1 &system= CYP1A2 (Homo sapiens, UniProt P05177) returns CYP450% inhibition @ 10 µM 1A2: 22

Summary: O=C(Nc1ccc(Cl)cc1)Nc1ccc(C(=O)NO)cc1 , CYP1A2 (Homo sapiens, UniProt P05177), CYP450% inhibition @ 10 µM 1A2 = 42

Field CYP450% inhibition @ 10 µM 1A2 (system: CYP1A2 (Homo sapiens, UniProt P05177)) for entry COc1ccc(NC(=O)Nc2ccc(/C=C/C(=O)NO)cc2)cc1 = 32

----------
Molecular target: human HDAC6 (Homo sapiens)
Sequence (Q9UBN7 1-1215): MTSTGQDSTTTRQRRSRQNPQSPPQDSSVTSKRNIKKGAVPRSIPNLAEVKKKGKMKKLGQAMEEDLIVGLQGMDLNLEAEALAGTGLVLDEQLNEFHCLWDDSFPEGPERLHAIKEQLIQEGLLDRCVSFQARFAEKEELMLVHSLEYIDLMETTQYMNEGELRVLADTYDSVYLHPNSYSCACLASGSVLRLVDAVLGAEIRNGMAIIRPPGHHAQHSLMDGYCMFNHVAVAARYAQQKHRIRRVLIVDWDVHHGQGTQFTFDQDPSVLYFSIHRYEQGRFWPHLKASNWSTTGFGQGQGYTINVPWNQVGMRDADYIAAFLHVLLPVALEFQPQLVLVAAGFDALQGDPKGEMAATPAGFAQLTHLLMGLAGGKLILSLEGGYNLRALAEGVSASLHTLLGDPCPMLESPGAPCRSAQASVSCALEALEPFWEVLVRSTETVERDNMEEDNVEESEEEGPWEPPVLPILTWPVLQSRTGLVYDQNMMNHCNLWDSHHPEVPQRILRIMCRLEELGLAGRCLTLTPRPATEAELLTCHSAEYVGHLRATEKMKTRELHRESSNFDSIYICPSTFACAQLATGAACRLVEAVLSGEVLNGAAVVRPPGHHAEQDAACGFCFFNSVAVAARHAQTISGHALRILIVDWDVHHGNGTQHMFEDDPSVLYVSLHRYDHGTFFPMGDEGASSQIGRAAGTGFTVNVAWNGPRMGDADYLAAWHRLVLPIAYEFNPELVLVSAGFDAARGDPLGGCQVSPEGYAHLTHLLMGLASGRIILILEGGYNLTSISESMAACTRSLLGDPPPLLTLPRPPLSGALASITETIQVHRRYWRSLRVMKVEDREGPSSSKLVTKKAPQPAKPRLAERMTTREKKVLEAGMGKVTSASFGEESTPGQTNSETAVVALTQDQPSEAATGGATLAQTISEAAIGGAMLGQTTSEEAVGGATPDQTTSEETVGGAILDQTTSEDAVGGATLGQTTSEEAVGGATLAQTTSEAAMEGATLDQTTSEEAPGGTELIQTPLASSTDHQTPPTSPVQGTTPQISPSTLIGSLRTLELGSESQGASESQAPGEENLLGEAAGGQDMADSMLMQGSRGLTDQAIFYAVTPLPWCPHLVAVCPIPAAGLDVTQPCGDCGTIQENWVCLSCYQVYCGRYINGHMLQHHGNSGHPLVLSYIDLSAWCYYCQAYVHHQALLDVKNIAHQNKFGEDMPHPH
value type: IC50 (nM)
// units = nM; emit number, no label

Below: 3 molecules and their reported IC50.
- N#Cc1ccc(NC(=O)Nc2ccc(C(=O)NO)cc2)cc1 [8 k]: 11.6
- COc1ccc(NC(=O)Nc2ccc(C(=O)NO)cc2)cc1 [Compound 8c]: 15.9
- O=C(CCc1ccc(NC(=O)Nc2ccc(Cl)cc2)cc1)NO [Compound 7b]: 185

Consider now this further molecule.
Lookup result for O=C(Nc1ccc(Cl)cc1)Nc1ccc(C(=O)NO)cc1 [Compound 8b] ; measured IC50: 15

----------
molecular target: CYP450 2D6 (Homo sapiens, UniProt P10635); construct: 10 μM compound was incubated with human liver microsomes and selective marker substrates; from tissue; host or cells: human liver microsomes; assay: CYP450 inhibition in human liver microsomes, 2D6; type: in vitro ADME; details: 10 µM
Sequence (P10635 whole entry): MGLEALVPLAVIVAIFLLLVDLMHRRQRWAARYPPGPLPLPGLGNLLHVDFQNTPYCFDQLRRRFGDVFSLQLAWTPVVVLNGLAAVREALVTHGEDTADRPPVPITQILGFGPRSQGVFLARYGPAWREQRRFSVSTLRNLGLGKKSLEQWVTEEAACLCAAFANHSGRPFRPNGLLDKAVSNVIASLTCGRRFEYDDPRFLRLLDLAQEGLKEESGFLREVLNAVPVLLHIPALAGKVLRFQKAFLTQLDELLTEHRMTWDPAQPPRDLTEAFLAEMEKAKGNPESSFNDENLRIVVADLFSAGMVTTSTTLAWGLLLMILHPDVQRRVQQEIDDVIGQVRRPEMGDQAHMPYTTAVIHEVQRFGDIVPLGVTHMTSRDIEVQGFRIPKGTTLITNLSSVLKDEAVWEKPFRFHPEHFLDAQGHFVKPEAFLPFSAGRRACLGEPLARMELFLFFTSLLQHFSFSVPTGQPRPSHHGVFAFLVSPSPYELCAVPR
value type: CYP450% inhibition @ 10 µM 2D6

* COc1ccc(NC(=O)Nc2ccc(CCC(=O)NO)cc2)cc1 [Compound 7c] | * (Inhibition < 10%)
* O=C(Nc1ccccc1)Nc1ccc(C(=O)NO)cc1 [Compound 8a, N-hydroxy-4-(3-phenylureido)bezamide] | * (Inhibition < 10%)
* O=C(Nc1ccc(C(=O)NO)cc1)Nc1ccc([N+](=O)[O-])cc1 [Compound 8d] | * (Inhibition < 10%)

----------
target: PfHDAC1 (Plasmodium falciparum, UniProt Q7K6A1)
Sequence (Q7K6A1 1-449): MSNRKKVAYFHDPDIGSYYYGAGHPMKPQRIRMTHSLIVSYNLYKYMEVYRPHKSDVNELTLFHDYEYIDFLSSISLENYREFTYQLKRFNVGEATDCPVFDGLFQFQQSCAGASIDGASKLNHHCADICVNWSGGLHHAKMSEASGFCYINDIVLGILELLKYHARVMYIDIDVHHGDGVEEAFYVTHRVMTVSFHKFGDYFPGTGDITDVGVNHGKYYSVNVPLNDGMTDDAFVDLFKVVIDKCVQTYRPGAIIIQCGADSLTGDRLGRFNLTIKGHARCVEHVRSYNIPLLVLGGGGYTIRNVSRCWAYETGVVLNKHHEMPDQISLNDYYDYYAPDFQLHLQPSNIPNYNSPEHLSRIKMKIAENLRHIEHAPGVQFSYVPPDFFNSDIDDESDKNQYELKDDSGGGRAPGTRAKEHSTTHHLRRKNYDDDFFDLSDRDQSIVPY
pIC50: −log10 of the molar value.
value type: pIC50

Briefly, pIC50 measured for O=C(CCCCCCC(=O)Nc1ccccc1)NO [Vorinostat (SAHA, 1), Vorinostat, reference compound] : 6.00 to 7.00

----------
tested on: acetylated histone H4; experiment: Western blot of acetylated histone H4 in infected erythrocytes; format: cell-based, Plasmodium falciparum; conditions: 10 × IC50 for 4 h, trophozoites, vs DMSO
value type: Acetylated-H4 level (normalised to unmodified H4)

• COc1ccc(NC(=O)Nc2ccc(C(=O)NO)cc2)cc1 [Compound 8c] = significant elevation
• COc1ccc(NC(=O)Nc2ccc(/C=C/C(=O)NO)cc2)cc1 [Compound 6c] = significant elevation

----------
biological target: CYP450 2C9 (Homo sapiens); construct: 10 μM compound was incubated with human liver microsomes and selective marker substrates; from tissue; host or cells: human liver microsomes; assay: CYP450 inhibition in human liver microsomes, 2C9; assay type: in vitro ADME; details: 10 µM
Sequence (P11712 whole entry): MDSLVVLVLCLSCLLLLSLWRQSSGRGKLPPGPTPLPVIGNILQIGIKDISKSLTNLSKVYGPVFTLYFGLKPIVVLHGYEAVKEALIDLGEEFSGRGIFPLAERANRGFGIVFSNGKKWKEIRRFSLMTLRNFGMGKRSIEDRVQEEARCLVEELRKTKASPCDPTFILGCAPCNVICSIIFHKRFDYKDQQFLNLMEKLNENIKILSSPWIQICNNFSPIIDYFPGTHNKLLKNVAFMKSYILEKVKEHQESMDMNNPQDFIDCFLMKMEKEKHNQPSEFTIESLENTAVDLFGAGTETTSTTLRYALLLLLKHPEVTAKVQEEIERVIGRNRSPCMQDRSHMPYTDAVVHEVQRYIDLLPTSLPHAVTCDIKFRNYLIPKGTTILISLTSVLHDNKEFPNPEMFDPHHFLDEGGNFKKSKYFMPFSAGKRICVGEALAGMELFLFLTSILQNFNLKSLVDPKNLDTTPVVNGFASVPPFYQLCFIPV
value type: CYP450% inhibition @ 10 µM 2C9

Reference set (5 entries):
- O=C(Nc1ccc(C(=O)NO)cc1)Nc1ccc([N+](=O)[O-])cc1: * (Inhibition < 10%)
- COc1ccc(NC(=O)Nc2ccc(CCC(=O)NO)cc2)cc1: * (Inhibition < 10%)
- COc1ccc(NC(=O)Nc2ccc(/C=C/C(=O)NO)cc2)cc1: 18%
- C=C[C@H]1C[N@@]2CC[C@H]1C[C@@H]2[C@@H](O)c1ccnc2ccc(OC)cc12 [Quinidine, reference compound]: * (Inhibition < 10%)
- Nc1ccc(S(=O)(=O)Nc2ccnn2-c2ccccc2)cc1 [Sulfaphenazole, reference compound]: 94%

Recorded result, O=C(Nc1ccc(Cl)cc1)Nc1ccc(C(=O)NO)cc1 , CYP450% inhibition @ 10 µM 2C9: * (Inhibition < 10%)

For record COc1ccc(NC(=O)Nc2ccc(C(=O)NO)cc2)cc1 the listed CYP450% inhibition @ 10 µM 2C9 is * (Inhibition < 10%)

Summary for this molecule, O=C(Nc1ccccc1)Nc1ccc(C(=O)NO)cc1 [Compound 8a, N-hydroxy-4-(3-phenylureido)bezamide] : CYP450% inhibition @ 10 µM 2C9 is * (Inhibition < 10%)
